- PROTOCOL TEXT: protease stability score; higher = more stable; yeast display proteolysis, trypsin and chymotrypsin;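 also: relative to predicted unfolded state with 0 unfolded-like and 1 meaning tenfold more protease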
For each record, write down the corresponding protease stability score.
Answer with the value's number alone.

Query: Reported protease stability score for TEEHEVALRFWRMFLEAITTGDEKRIKELLDPHVQIEINGKHLHGMETLIHRINEIRETWKHVEIKTVEFYNGQIHSHFRVHYVFHVNGKEIERDTDVLLILTKVDGRWHIKSIHIH : what is it?
Result: 2.52

Query: Looking for the measured protease stability score of DELEHHLFELMEKMIKARLTGDEETLHRLADPDTRIEVGEFEFHGREHWVRFVRELDERIKNIRFEIRLRRYETVGNKIHIDIELRYHQGDKEEHHRTEWILIVFNGRLKSIQIVLH , can you help?
Result: 1.81

Query: Fill blank: measured protease stability score of the sequence NDLEERTKKAAEELREMHKTGDEELWLKNMDPNVRLEIIIGDKLLIFHGREKWREWFHKYKNARHEDNDEHVQGDKTRINVHIVFNGRRVDVEITLRVIDGRVHSEHINII is ____.
Result: 1.45

Query: What value of protease stability score has been recorded for this entry: DKDEKETKDAIHILLHVARTGDERLLNTLFDPDVKLEVGDKSHHGRETITKVWKDWFHEWRIRDVTYHHVESQGDKIHVDLRIDGIFDGQRTHIESHNVLLKVNGQWLLRREVVH
Result: 0.512

Query: State the recorded protease stability score for this entry: SEDDEFIRFVSEIIEHILETGDEESLIKLADPNAQFIHIINGREIRYHGRHIFIEWWRRLGIDHLKIEDVRVEQQGDKMRTDFRVILRVGDKTIDSKLHFLIRKVDGKWHVESIKVEHR
Result: 2.27

Query: Could you tell me which protease stability score is on file for SEHSHFLVELALIFWKALVTGDEERLDRLIDPNTRLEIGDKEEIGRENIIRKLDHIRIKTEEITVRDYRTQGDKFHMIGHVDLHFDFNGVRHRFTTEVRVDLTTVDGKIHSHHIKYR ?
Result: 0.145

Query: Record request: protease stability score value, item HEHEELIRWAVELLEHNTRTGDEETLIRLADPNVRMIFDGRDLVGRDWLLEFEERLGADHVELEFRHVRIIDGRVHVNGIMRHEFDGVRVERRTTIIVKKINGRWNNRTVEFR
Result: 0.529

Query: Which protease stability score is reported for this sequence? DDMERHARKALRVLIESLMTGDEDDIYRMLDPHVRYIFDGVDFHGRERTKETLERLSREFGLSRVHTELKDSKVYDGRLELHLEVNVDGRRRTVIVHVVKIDGKWYVEELRVQ
Result: 1.26

Query: Requested field: protease stability score. Item: DEEHRLSHEIEKHLEDDLRTGDFHHFIKQVDPNTRVRYGDKRLHGMHAVIWTLEHLGIDVFHLTDSHTFENRVVVHVRLEQGDFTMSVEVHATKVNGRWIVTKINFHHS
Result: 0.023

Query: Can you share its protease stability score? I mean this sequence: SELEEAVRRWLELFFKLFWTGNEEILTDLFDPNVRLEVGDKVFIGREEVSRHLREFRERVKNLRMHVHDVKLINGVVHMDIEIDINGVRTKAHTDWIVIDGRHHSQIIKIN
Result: 0.525

Query: Requested read-out: protease stability score. Entry: DEIKTELEKWLREFIRDMRTGDEDTLRQQADPNMRLDVNGQEIIGWDRILREEIRLRHDLGLTQIHVTVKDHRIQGEKIHNRGEIIYGEFRLDTILIVKKVDGRWRATDMVVV
Result: 1.17

----------
- PROTOCOL TEXT: protease stability score; higher = more stable; yeast display proteolysis, trypsin and chymotrypsin;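 also: relative to predicted unfolded state with 0 unfolded-like and 1 meaning tenfold more protease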
Class YES: protease stability score at least 2. Class NO: protease stability score below 2.

Query: Answer whether protease stability score of DDFDRNIEKLMKDLLHNWRTGNEDEFLRLIDPNARLTVGDYESHGREEYARVLRELLEEMRLHQVHIRHVEYFDGQADIDIREDGFINGQRIILTTRIIVVKVNGRWVVKSHVIN is greater than or equal to 2.
Result: NO

Query: State whether the measured protease stability score reaches 2, counting equality as reaching it, for DEEERFAEEAVEIIIRDWMTGDEELLHRNADPHMRIEVGDKTIHGMENFVKFLLEIRMKDSRLRVEDVKHYNGKLHLTFKSEVDGRVNGRRKTLTFDIKMIIEKVDGRWILKTIHIV
Result: NO

Query: I'd appreciate it if you could say whether TELEHDVIHAFNLIVWAIRTGDEKTYHRLVDPRVQIDIGDKHLHGREDFTRLLREIRVTVRDWDFEHVRFQGDYAILHSRLDIEINIDGRIERIDVHQILFVEKINGRWRHTRESRH has protease stability score at least equal to 2.
Result: NO

Query: Hi team, for SEREHEVQESLEILIKLWHTGDFRAISEYADPNVRSDVNGKEFHGRENVEEALERSMKDLGVKVVHSEHIEHLEIYGNKVIVHVRIDGEVDGKRFHSHFIMYTTKVDGQWRVHEIRVH , is the recorded protease stability score at or above 2?
Result: NO

Query: For this sequence, is measured protease stability score 2 or higher? DEENEHAKHLMRELIKSIITGDEEMIDHLADPNMRLRVGDKEWHGREEIQHWLRRLVEEARIHDVELTSVRTIGDKVILDTRVDIKQGDKRKIITLIIIVQKFDGRWIIEEIRIH
Result: YES

----------
- PROTOCOL TEXT: protease stability score; higher = more stable; yeast display proteolysis, trypsin and chymotrypsin;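 also: relative to predicted unfolded state with 0 unfolded-like and 1 meaning tenfold more protease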
METRIC: protease stability score
Form rule: numeric answer, no unit written next to it.

Query: Returns the measured protease stability score for the input sequence. Input: SEEERLMEEAMKEFVNNSLTGDFHKMSNLADPNTRIEIDGRELHGRELAEELWERIKNLTVEIKDYKVQGDKVIIYVKIHVNGREKDVILYVQKINGRWLLRHVEVR
Result: 1.34

Query: Given DDLEHQARESLDLHTEARKTGDEDQLKNLIDPHVRIEQGDKHIHGMEMFIRHWHKLGADHSEFRLKHVRVIDGRVRIDGEMIIHINGRTISIEVHFNINKINGRWIITEIHIH , state its recorded protease stability score.
Result: 1.09

Query: Would you mind telling me what protease stability score value was observed for DEEEEATEKFFEKLLRSWKTGDEKSYEELLDPHARSDINGKIFHGRDKLSQMLHEFLKRVKGITIHDVKVHDSRLIDGRAILDGRVDMKVGDKRFELNREVVTLKVDGRWILESEIVK ?
Result: 0.767

Query: Item under review: DEARVIFEEFIRQLLHAIRTGDFDLYRHLADPHVQVEIGDKVFWGREVITEFEDDLLRRMGVNHVDMRIRIFEIIDGRIHIVGEHRIDVNGRDEHIDTRVLVHKVDGRWVLRRERRT . Reported protease stability score?
Result: 0.647

Query: Can you share its protease stability score? I mean this sequence: SEDDHERHRFLELIKHNHKTGNEENIYRMADPDVRLHIGDKEFHGMEHHMEFLREWLDRLGIDKVEFQVERIHVQGDKINVDVNLNVNGKHYRVILYLIKIDGRWRIKLLEIR
Result: 0.884

Query: // protease stability score lookup, key: DDSDQANKIMLEVLRRKLDTGDEDSIRKLADPHARIVIGDKTIHGMDEHTNELRHMLELWGVDRVELHIRHVEKQGDKLRVDGELHFNGVSVRVIFLHEKINGRWFMRHTEIR
Result: 0.984

Query: Please look up its protease stability score: SEQWEEAKRLTDLYLTTSHTGDEQLSREFMDPHARTIVDGVEVHGMEEWANRFMRFVKQLRVDFRIHDMDVQGEKVDVDIRIRFVFNGVEHRIESILIVHKINGRWLMKEQRII
Result: 1.34

Query: Give the measured protease stability score of SEEKEHSDRLAEHLIHWFYTGDEDKLNELFDPNTKYVINGKELHGMESEHRERREEWRRVKNITFSIKHWDIQGNKVILHMTIHVGEKDIFVTYEYRIFDGKMKEIQVHVR .
Result: 0.867

Query: Could you share which protease stability score value was measured for TEYEEHMKKMNEEILHSWITGDEDTLQHLADPNVRVEINGQETHGREQLYNTFHKAGFKHWEFDSIRFQGDKSDIRGQFEVDGQLREMEVEMRIVNGRLKIVRLDIR ?
Result: 0.977

Query: Consider the sequence DEDDRVAEHALRLLFELLRTGDWEHILEMFDPNMRLDFDGKKWHGRESFRELFTRFLEEIRIHDVKVEDFKVFDGRVEVDTRIRGKYGDKETKLETKIVALKINGRWVLESSHYN and give its measured protease stability score.
Result: 0.898

Query: Given the entry DEETEWLERLVRVILHALDTGDEDEMNQNADPHTRVRVGDKEYHGRELFLDVFRERVHRLGIDHSNLREFDIQGDFFHLDTRLQVGDKFLEVNLIFHVINGRITIVRIDYR , report its measured protease stability score.
Result: 1.15

meta.source: the NTF2 design screens of Basanta et al. (2020)
